Cited source for all entries: paper PMC7305236

# TEST SYSTEM: atypical chemokine receptor ACKR3 (formerly CXCR7) (human, UniProt P25106 1-362)
# Sequence (P25106 whole entry): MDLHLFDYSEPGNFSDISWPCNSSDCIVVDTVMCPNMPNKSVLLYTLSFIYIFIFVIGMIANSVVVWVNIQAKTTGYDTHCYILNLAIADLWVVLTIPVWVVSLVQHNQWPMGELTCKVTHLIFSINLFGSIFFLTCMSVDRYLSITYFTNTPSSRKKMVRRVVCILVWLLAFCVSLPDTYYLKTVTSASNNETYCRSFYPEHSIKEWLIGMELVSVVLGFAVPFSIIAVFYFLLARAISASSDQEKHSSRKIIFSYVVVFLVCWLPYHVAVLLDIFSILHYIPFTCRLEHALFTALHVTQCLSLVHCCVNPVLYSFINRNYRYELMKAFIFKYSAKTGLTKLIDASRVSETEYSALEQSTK
# ASSAY REMARKS: cell-based or functional assay
No end group written: not given here.
Is Supplementary Table 9: EC50 of β-arrestin-2 recruitment to ACKR3, U87 cells at least 900 nM? Then label 1. If not, label 0.

Identify whether the reported Supplementary Table 9: EC50 of β-arrestin-2 recruitment to ACKR3, U87 cells of the following binder is 900 nM or greater: YGGFMRRVGRPEWWMDYQKRYG [BAM22]
label 0

Identify whether the reported Supplementary Table 9: EC50 of β-arrestin-2 recruitment to ACKR3, U87 cells of the following binder is 900 nM or greater: YGGFLRRIRPKLKWDNQ [Dynorphin A]
label 0

Identify whether the reported Supplementary Table 9: EC50 of β-arrestin-2 recruitment to ACKR3, U87 cells of the following binder is 900 nM or greater: YGGFMRRV-NH2 [Adrenorphin]
label 0

Identify whether the reported Supplementary Table 9: EC50 of β-arrestin-2 recruitment to ACKR3, U87 cells of the following binder is 900 nM or greater: FGGFTGARKSARK-NH2 (also: ψ(CH2-NH) bond between Phe1 and Gly2) [[Phe1Ψ(CH2-NH)-gly2]nociceptin-(1-13)-NH2]
label 1

Identify whether the reported Supplementary Table 9: EC50 of β-arrestin-2 recruitment to ACKR3, U87 cells of the following binder is 900 nM or greater: FGGFTGARKSARKLANQ [Nociceptin]
label 1
